Where these numbers come from: ChEMBL document CHEMBL3085746

Biological target: Tyrosine-protein phosphatase non-receptor type 1 (Homo sapiens, UniProt P18031)
Sequence (P18031 whole entry): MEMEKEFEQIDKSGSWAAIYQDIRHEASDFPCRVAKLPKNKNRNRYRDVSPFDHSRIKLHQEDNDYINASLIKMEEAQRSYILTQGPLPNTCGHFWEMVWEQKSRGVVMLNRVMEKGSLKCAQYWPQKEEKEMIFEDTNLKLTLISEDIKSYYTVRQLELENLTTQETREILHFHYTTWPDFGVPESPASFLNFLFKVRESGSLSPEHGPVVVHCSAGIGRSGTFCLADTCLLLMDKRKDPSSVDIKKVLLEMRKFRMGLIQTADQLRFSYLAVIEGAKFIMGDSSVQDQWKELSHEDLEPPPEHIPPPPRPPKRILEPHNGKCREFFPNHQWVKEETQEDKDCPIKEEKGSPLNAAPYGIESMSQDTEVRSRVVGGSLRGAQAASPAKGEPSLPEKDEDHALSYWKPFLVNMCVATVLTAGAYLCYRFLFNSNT
Assay: Inhibition of GST-tagged recombinant human PTP1B
pIC50: −log10 of the molar value.
recorded.metric: pIC50

O=C(O)CC(CC(=O)c1ccccc1)c1ccc(-n2c3ccccc3c3ccccc32)cc1 (stereo not drawn) = 4.99
O=C(O)[C@@H](Cc1ccccc1)Oc1ccc(CN(Cc2ccc3c(c2)OCO3)c2ccc(F)cc2)cc1 = 4.98
O=C(O)[C@@H](Cc1ccccc1)Oc1ccc(-n2c3ccccc3c3ccccc32)cc1 = 4.39
O=C(O)CN(C(=O)Cc1ccccc1)c1ccc(CN(Cc2ccc3c(c2)OCO3)c2ccc(F)cc2)cc1 = 5.89
O=C(N[C@H](Cc1ccccc1)C(=O)O)c1ccc(CN(Cc2ccccc2)Cc2ccccc2)cc1 = 4.62

a: O=C(N[C@H](Cc1ccccc1)C(=O)O)c1ccc(CN(Cc2ccccc2)c2ccccc2)cc1
b: O=C(O)[C@@H](Cc1ccccc1)Oc1c(Br)cc(-c2c3ccccc3c(Br)c3oc4ccccc4c23)cc1Br
c: O=C(O)CC(CC(=O)c1ccccc1)c1ccc(Cn2c3ccccc3c3ccccc32)cc1 (stereo not drawn)
Rank ascending by pIC50. List the labels, following the order given in the request.
c, a, b
